ASSAY INFO: in vivo
Design: species or system Sprague-Dawley rats
CONDITION: Sprague-Dawley, rat, iv, 1 mg/kg
READOUT LABEL: log10 of Cmax (log10 of the value in µM)
Give log10 of Cmax, with Cmax taken in µM.

Task: Entry CC(=O)OCC1OC(OCC[N+](C)(C)CCl)C(OC(C)=O)C(OC(C)=O)C1OC(C)=O.[I-] (stereo in doubt) has what log10 of Cmax?
Output: 0.92

Task: If you can, please state the reported log10 of Cmax value of C#CC[N+](C)(C)CCO[C@@H]1O[C@H](COC(C)=O)[C@@H](OC(C)=O)[C@H](OC(C)=O)[C@H]1OC(C)=O.[I-] .
Output: 1.29

Task: Record request: log10 of Cmax value, item CC(=O)OC[C@@H]1O[C@H](OCC[N+](C)(C)CCl)[C@@H](OC(C)=O)[C@H](OC(C)=O)[C@H]1OC(C)=O (stereo in doubt)
Output: -2.22

Task: Endpoint output: log10 of Cmax of C[N+](C)(CF)CCO[C@@H]1O[C@H](CO)[C@@H](O)[C@H](O)[C@H]1O.[Cl-] . Value?
Output: 1.37

Task: Endpoint output: log10 of Cmax of CC(=O)OCC1OC(OCC[N+](C)(C)CF)C(OC(C)=O)C(OC(C)=O)C1OC(C)=O.[I-] (stereo in doubt) . Value?
Output: 1.13

Task: What measured log10 of Cmax goes with CC(=O)OC[C@@H]1O[C@H](OCC[N+](C)(C)CF)[C@@H](OC(C)=O)[C@H](OC(C)=O)[C@H]1OC(C)=O (stereo in doubt) ?
Output: -3.00

Task: Which measured log10 of Cmax value corresponds to CC(=O)OC[C@H]1O[C@@H](OCC[N+](C)(C)C2CC2)[C@H](OC(C)=O)[C@@H](OC(C)=O)[C@@H]1OC(C)=O.[I-] ?
Output: 0.89

====

Provide the reported Papp B→A at 2 h, 1 µM of each item.
ASSAY INFO: Caco-2 permeability assay
Type: in vitro ADME
CONDITION: human, Caco-2, pH 7.4
Give your result in ×10⁻⁶ cm/s as a bare value.

Task: I am curious: what Papp B→A at 2 h, 1 µM value has been reported for C#CC[N+](C)(C)CCO[C@@H]1O[C@H](COC(C)=O)[C@@H](OC(C)=O)[C@H](OC(C)=O)[C@H]1OC(C)=O.[I-] [Compound 7] ?
Output: 0.15

Task: Item under review: C[N+]1(CF)CCC[C@H]1CO.[I-] (stereo partly drawn) [Compound 109] . Reported Papp B→A at 2 h, 1 µM?
Output: 0.5

Task: Endpoint output: Papp B→A at 2 h, 1 µM of CC(=O)OCC1OC(OCC[N+](C)(C)CF)C(OC(C)=O)C(OC(C)=O)C1OC(C)=O.[I-] (stereo in doubt) [Compound 79] . Value?
Output: 0.255

Task: Please look up its Papp B→A at 2 h, 1 µM: C[N+](C)(CCO)C1CC1.[I-] [Compound 111]
Output: 0.8

Task: Could you tell me which Papp B→A at 2 h, 1 µM is on file for CC(=O)OC[C@H]1O[C@@H](OCC[N+](C)(C)C2CC2)[C@H](OC(C)=O)[C@@H](OC(C)=O)[C@@H]1OC(C)=O.[I-] [Compound 80] ?
Output: 0.313

Task: Field request: Papp B→A at 2 h, 1 µM | item: C#CC[N+]1(C)CCCN1.[I-] (stereo not drawn) [Compound 125]
Output: 0.482

Values were extracted from patent US20220041641A1.
